System: 186277-243-T-J2-PDC complex spheroid growth
Test: Anticancer human tumor 186277-243-T-J2-PDC patient-derived colon adenocarcinoma cell line growth inhibition [AhR]
Settings: second compound 0.1 µM; first compound 0.316 µM; hits give low values
# maps each entry to its viability, T/C

| Molecule | Target under test | Unit of measure | viability, T/C |
| --- | --- | --- | --- |
| NS(=O)(=O)OCC1CC(n2ccc3c(NC4CCc5ccccc54)ncnc32)CC1O (centres undefined) + CC(CO)NC(=O)c1cc(-c2ccc(Cl)cc2)nn(-c2cnn(C)c2)c1=O | 186277-243-T-J2-PDC complex spheroid growth | % | 33.5 |
| COc1cc(Nc2ncc3c(n2)-c2ccc(Cl)cc2C(c2c(F)cccc2OC)=NC3)ccc1C(=O)O + Cc1ccccc1N=Nc1ccc(NC(=O)c2ccnn2C)c(C)c1 | 186277-243-T-J2-PDC complex spheroid growth | % | 117 |
| COc1cc(C2c3cc4c(cc3C(OC3OC5COC(C)OC5C(O)C3O)C3COC(=O)C23)OCO4)cc(OC)c1O (centres undefined) + Cc1ccccc1N=Nc1ccc(NC(=O)c2ccnn2C)c(C)c1 | 186277-243-T-J2-PDC complex spheroid growth | % | 142 |
| O=C(c1cc(Cc2n[nH]c(=O)c3ccccc23)ccc1F)N1CCN(C(=O)C2CC2)CC1 + CC(CO)NC(=O)c1cc(-c2ccc(Cl)cc2)nn(-c2cnn(C)c2)c1=O | 186277-243-T-J2-PDC complex spheroid growth | % | 102 |

====

Tested on: 186277-243-T-J2-PDC complex spheroid growth
Experiment: Anticancer human tumor 186277-243-T-J2-PDC cell line growth inhibition [AhR]; active = viability on the fitted dose curve at most 10% of control; inactive = the rest;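 also: luminescent signal used as a stand-in for viable cell amount; spheroids exposed to compounds for seven days before the viability read; 100% = DMSO vehicle control wells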
Conditions: second compound 0.1 µM; first compound 10 µM
Classes used: active, inactive

| Molecule | Discrete label |
| --- | --- |
| COc1cc(Nc2ncc3c(n2)-c2ccc(Cl)cc2C(c2c(F)cccc2OC)=NC3)ccc1C(=O)O + Cc1cncc(-c2nc(NCCc3c[nH]c4ccccc34)c3ncn(C(C)C)c3n2)c1 | inactive |
| NS(=O)(=O)OCC1CC(n2ccc3c(NC4CCc5ccccc54)ncnc32)CC1O (stereo not drawn) + CC(CO)NC(=O)c1cc(-c2ccc(Cl)cc2)nn(-c2cnn(C)c2)c1=O | active |
| O=C(c1cc(Cc2n[nH]c(=O)c3ccccc23)ccc1F)N1CCN(C(=O)C2CC2)CC1 + Cc1ccccc1N=Nc1ccc(NC(=O)c2ccnn2C)c(C)c1 | inactive |

====

Test system: 186277-243-T-J2-PDC complex spheroid growth
Test: Anticancer human tumor 186277-243-T-J2-PDC cell line growth inhibition [AhR];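 also: luminescent signal used as a stand-in for viable cell amount; spheroids exposed to compounds for seven days before the viability read; 100% = DMSO vehicle control wells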
Details: second compound 3.16 µM; first compound 0.316 µM; hits give low values
Output YES for records whose viability, T/C is lower than 90%, NO for records at or above 90%.

| Compound | Discrete label |
| --- | --- |
| COc1cccc2c1C(=O)c1c(O)c3c(c(O)c1C2=O)CC(O)(C(=O)CO)CC3OC1CC(N)C(O)C(C)O1 (stereo unspecified) + CC(CO)NC(=O)c1cc(-c2ccc(Cl)cc2)nn(-c2cnn(C)c2)c1=O | YES |
| COc1cc(Nc2ncc3c(n2)-c2ccc(Cl)cc2C(c2c(F)cccc2OC)=NC3)ccc1C(=O)O + Cc1ccccc1N=Nc1ccc(NC(=O)c2ccnn2C)c(C)c1 | NO |
| Nc1ccccc1NC(=O)c1ccc(CNC(=O)OCc2cccnc2)cc1 + Cc1cncc(-c2nc(NCCc3c[nH]c4ccccc34)c3ncn(C(C)C)c3n2)c1 | NO |
| CC1(C)CCC(CN2CCN(c3ccc(C(=O)NS(=O)(=O)c4ccc(NCC5CCOCC5)c([N+](=O)[O-])c4)c(Oc4cnc5[nH]ccc5c4)c3)CC2)=C(c2ccc(Cl)cc2)C1 + CC(CO)NC(=O)c1cc(-c2ccc(Cl)cc2)nn(-c2cnn(C)c2)c1=O | YES |
| COc1cccc2c1C(=O)c1c(O)c3c(c(O)c1C2=O)CC(O)(C(=O)CO)CC3OC1CC(N)C(O)C(C)O1 (stereo unspecified) + Cc1ccccc1N=Nc1ccc(NC(=O)c2ccnn2C)c(C)c1 | YES |
